Quick reference for isoTOP-ABPP reactivity profile ratio, P48735_C308 among some molecules
Target: IDH2 C308 (P48735) (Homo sapiens)
Sequence (P48735 40-452): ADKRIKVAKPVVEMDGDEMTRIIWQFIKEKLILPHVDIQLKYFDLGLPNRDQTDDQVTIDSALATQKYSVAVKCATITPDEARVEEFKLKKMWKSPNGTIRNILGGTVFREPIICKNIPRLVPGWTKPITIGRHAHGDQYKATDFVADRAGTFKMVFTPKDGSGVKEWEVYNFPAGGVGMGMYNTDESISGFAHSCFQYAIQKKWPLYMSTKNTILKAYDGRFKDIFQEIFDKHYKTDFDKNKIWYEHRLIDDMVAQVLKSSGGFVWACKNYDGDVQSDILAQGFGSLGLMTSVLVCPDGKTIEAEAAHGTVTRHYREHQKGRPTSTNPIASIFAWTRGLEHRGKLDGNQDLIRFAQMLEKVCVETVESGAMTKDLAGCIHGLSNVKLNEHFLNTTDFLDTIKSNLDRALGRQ
Experiment: Competitive isoTOP-ABPP, cell lysates
Format: binding
Conditions: 500 μm, in-vitro_ramos_231
Quantity Measured: isoTOP-ABPP reactivity profile ratio, P48735_C308

• O=C(CCl)Nc1ccc(-c2ccccc2)cc1 = 1.1
• O=C(CCl)N1CCc2cc(Br)ccc21 = 2.2
• COc1cc(NC(=O)CCl)cc(OC)c1 = 0.8
• C=CC(=O)N(c1ccccc1)C1CCCCC1 = 0.2
• CC1CCc2ccccc2N1C(=O)CCl (stereo not drawn) = 1.0
• C=CC(=O)N1CCC(Cc2ccccc2)CC1 = 0.5

----------
Quick reference for isoTOP-ABPP ratio Q9BRA2_C43 among some compounds
Target: cysteines in MDA-MB-231 and Ramos cells (Homo sapiens, UniProt Q9BRA2)
Sequence (Q9BRA2 whole entry, the tested form may be a part): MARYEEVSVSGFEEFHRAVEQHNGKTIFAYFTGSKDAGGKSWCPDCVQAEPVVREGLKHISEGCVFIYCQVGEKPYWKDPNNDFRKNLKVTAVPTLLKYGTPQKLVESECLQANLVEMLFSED
Experiment: Competitive isoTOP-ABPP in situ (fragment-treated cells)
Format: cell-based
Details: 200 μM, insitu, 231
Quantity Measured: isoTOP-ABPP ratio Q9BRA2_C43

- O=C(CCl)NC(=O)NC12CC3CC(CC(C3)C1)C2 [compound 12]: 20.0
- C=CC(=O)Nc1cc(F)c(N2CCN(C(=O)OC(C)(C)C)CC2)c(F)c1 [compound 38]: 1.1
- CC1CCc2ccccc2N1C(=O)CCl (stereo not drawn) [compound 45]: 8.0
- O=C(CCl)NC12CC3CC(CC(C3)C1)C2 [compound 21]: 16.0
- O=C(CCl)N1CCN(S(=O)(=O)c2ccccc2F)CC1 [compound 10]: 20.0
- O=C(CCl)NCCc1c[nH]c2ccccc12 [compound 13]: 20.0
- Cc1ccc(C=C(C#N)C(=O)NCCN2CCOCC2)cc1 [compound 41]: 0.6
- C=CC(=O)N(Cc1cccnc1)c1cc(C(F)(F)F)cc(C(F)(F)F)c1 [compound 31]: 0.6
- CC(C)CCOCCNC(=O)CCl [compound 27]: 20.0

----------
Quick reference for isoTOP-ABPP reactivity ratio, O114933_C98 among some compounds
Target: UniProt O14933
Sequence (O14933 whole entry): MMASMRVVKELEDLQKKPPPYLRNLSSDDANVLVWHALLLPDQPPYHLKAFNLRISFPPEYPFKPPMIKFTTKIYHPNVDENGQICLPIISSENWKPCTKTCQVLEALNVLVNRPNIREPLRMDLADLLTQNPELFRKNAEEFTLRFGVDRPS
Assay: Competitive isoTOP-ABPP, cell lysates
Type: binding
Settings: 500 μm, in-vitro_ramos_231
Quantity Measured: isoTOP-ABPP reactivity ratio, O114933_C98

* O=C(CCl)N(Cc1ccc(F)cc1)C12CC3CC(CC(C3)C1)C2 [compound 34] | 0.8
* CC(C)(C)c1cc(NC(=O)CCl)on1 [compound 32] | 13.8
* Cc1ccc(C=C(C#N)C(=O)NCCN2CCOCC2)cc1 [compound 41] | 1.2
* C=CC(=O)Nc1cc(F)c(N2CCN(C(=O)OC(C)(C)C)CC2)c(F)c1 [compound 38] | 1.6

----------
Quick reference for isoTOP-ABPP ratio (reactivity profile), Q15306_C194 among some compounds
Biological target: UniProtKB Q15306
Sequence (Q15306 whole entry): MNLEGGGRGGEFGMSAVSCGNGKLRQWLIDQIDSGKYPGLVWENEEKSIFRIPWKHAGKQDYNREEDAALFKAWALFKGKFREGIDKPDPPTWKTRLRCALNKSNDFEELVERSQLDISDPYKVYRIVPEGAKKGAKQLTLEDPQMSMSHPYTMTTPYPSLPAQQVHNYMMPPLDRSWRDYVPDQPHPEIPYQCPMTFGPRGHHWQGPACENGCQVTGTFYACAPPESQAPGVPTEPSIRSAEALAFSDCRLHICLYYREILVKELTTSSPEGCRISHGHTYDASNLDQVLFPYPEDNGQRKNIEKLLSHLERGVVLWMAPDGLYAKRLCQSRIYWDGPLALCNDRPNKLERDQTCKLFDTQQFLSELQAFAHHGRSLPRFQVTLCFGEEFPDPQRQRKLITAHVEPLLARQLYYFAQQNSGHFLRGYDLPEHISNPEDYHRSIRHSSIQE
Test: Competitive isoTOP-ABPP, cell lysates
Type: binding
Conditions: 500 μm in-vitro ramos
Quantity Measured: isoTOP-ABPP ratio (reactivity profile), Q15306_C194

- C=CC(=O)N(Cc1cccnc1)c1ccc(Oc2ccccc2)c(C(F)(F)F)c1: 2.2
- CC(C)CCOCCNC(=O)CCl: 1.0
- O=C(/C=C/c1ccccc1)Nc1cc(C(F)(F)F)cc(C(F)(F)F)c1: 1.1
- O=C(CCl)N1CCOCC1: 1.1
- O=C(CCl)N1CCC(C(O)(c2ccccc2)c2ccccc2)CC1: 3.0
- COc1ccccc1OCCNC(=O)CCl: 1.1
- CC(Br)C(=O)Nc1cc(C(F)(F)F)cc(C(F)(F)F)c1 (stereo not shown): 1.9
- N#C/C(=C\c1cc(C(F)(F)F)cc(C(F)(F)F)c1)C(N)=O: 1.9
- O=C(CCl)NC12CC3CC(CC(C3)C1)C2: 1.7
- O=C(CCl)N1CCN(CC(=O)N2CCOCC2)CC1: 1.2

# credit: patent US10670605B2
